Some compounds, each annotated with its measured inhibition at 30 µM.
# assayed_target: human CLC-2 (Homo sapiens)
# Sequence (P51788 2-898): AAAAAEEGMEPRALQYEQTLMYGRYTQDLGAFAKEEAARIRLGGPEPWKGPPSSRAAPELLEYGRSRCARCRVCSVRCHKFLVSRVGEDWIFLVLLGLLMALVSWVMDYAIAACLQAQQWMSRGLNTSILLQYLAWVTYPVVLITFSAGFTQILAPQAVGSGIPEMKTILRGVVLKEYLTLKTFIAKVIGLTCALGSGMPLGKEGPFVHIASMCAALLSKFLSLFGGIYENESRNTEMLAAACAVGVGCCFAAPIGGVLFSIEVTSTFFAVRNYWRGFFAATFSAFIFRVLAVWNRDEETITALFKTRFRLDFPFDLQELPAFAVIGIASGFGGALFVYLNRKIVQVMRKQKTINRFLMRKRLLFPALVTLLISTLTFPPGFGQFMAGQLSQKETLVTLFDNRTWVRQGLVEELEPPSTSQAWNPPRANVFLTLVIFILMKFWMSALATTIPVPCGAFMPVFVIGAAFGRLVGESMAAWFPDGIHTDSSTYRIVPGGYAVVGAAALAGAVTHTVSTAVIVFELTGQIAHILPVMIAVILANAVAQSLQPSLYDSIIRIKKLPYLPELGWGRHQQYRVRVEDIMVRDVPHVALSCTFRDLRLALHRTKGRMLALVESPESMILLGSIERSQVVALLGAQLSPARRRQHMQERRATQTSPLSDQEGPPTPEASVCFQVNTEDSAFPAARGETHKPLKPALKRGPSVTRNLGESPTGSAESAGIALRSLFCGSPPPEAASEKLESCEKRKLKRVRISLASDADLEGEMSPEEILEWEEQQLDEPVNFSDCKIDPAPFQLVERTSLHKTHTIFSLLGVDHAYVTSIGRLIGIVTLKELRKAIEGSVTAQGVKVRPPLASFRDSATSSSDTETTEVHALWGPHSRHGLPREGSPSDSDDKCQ
# test_details: cell-based
# measurement_parameters: CHO, read-out: % inhibition, cell 2
Response body: numeric value in %, unit text excluded.

Data request: Could you tell me which inhibition at 30 µM is on file for CCCCC(=O)N(Cc1ccc(-c2ccccc2-c2nnn[nH]2)cc1)[C@H](C(=O)O)C(C)C [Valsartan] ?
Data returned: 12

Data request: // next record Clc1ccc2c(c1)C(N1CCNCC1)=Nc1ccccc1O2 [Amoxapine]
Data returned: 26

----------
# assayed_target: human CLC-2 (Homo sapiens)
# test_details: cell-based
# measurement_parameters: CHO, read-out: % inhibition, cell 2
Starred links: 1 amine or outer side, 2 acyl side, 3 side chain; linkers in the order of their positions; H or OH if unused. Positions of bridges follow the written chain, without caps; N, C: chain ends. Non-standard residues stand in square brackets, D forms with d. Residues, ends and D or L forms follow the SMILES beside them. *: point of attachment. hTyr(3S-OH,4S-OH,3'-OSO3H) = N[C@H](C(=O)O)[C@H](O)[C@@H](O)c1ccc(O)c(OS(=O)(=O)O)c1; Orn(4R-OH,5R-OH) = O=C([C@H](C[C@@H](O)[C@@H](O)N[*:3])N[*:1])[*:2]; Pro(3S-OH,4S-Me) = C[C@H]1CN[C@H](C(=O)O)[C@H]1O; X1 = CCCCCOc1ccc(-c2cc(-c3ccc(C(=O)*)cc3)no2)cc1; Gln(3R-OH) = NC(=O)C[C@@H](O)[C@H](N)C(=O)O; Hyp = O=C(O)[C@@H]1C[C@@H](O)CN1
Given measured inhibition at 30 µM, output true if it is greater than or equal to 20% and false if not.

molecule	qualitative_label
CC(C(=O)O)c1cccc(C(=O)c2ccccc2)c1 (centres unmarked)	false
O=C(O)Cc1ccccc1Nc1c(Cl)cccc1Cl	false
COc1cc(C(C)=O)ccc1OCCCN1CCC(c2noc3cc(F)ccc23)CC1	true
CCCCC1=NC2(CCCC2)C(=O)N1Cc1ccc(-c2ccccc2-c2nnn[nH]2)cc1	true
CCCCc1nc(Cl)c(CO)n1Cc1ccc(-c2ccccc2-c2nnn[nH]2)cc1	false
CCC(=O)O[C@]1(C(=O)CCl)[C@@H](C)C[C@H]2[C@@H]3CCC4=CC(=O)C=C[C@]4(C)[C@@]3(F)[C@@H](O)C[C@@]21C [Clobetasol Propionate]	true
Cc1cccc(Nc2ccccc2C(=O)O)c1C	false
CN1CCN(C2=Nc3cc(Cl)ccc3Nc3ccccc32)CC1	true
CN1C(C(=O)Nc2ccccn2)=C(O)c2ccccc2S1(=O)=O	false
CN(C)CCC[C@@]1(c2ccc(F)cc2)OCc2cc(C#N)ccc21	true

Data request: Exam item: decide whether the reported inhibition at 30 µM for Nc1c(CC(=O)O)cccc1C(=O)c1ccc(Br)cc1 is at least 20%.
Data returned: false

Data request: Next: CCOc1nc2cccc(C(=O)O)c2n1Cc1ccc(-c2ccccc2-c2nnn[nH]2)cc1
Data returned: false

Data request: Field entry: Cc1ccc(Cl)c(Nc2ccccc2C(=O)O)c1Cl [MCFA, meclofenamate]
Data returned: true

Data request: Try this molecule next: COc1cc(C(=O)NS(=O)(=O)c2ccccc2C)ccc1Cc1cn(C)c2ccc(NC(=O)OC3CCCC3)cc12
Data returned: true

Data request: Record: Cc1cc2c(s1)Nc1ccccc1N=C2N1CCN(C)CC1
Data returned: true

Data request: Can you check CCCCCOc1ccc(-c2cc(-c3ccc(C(=O)N[C@H]4C[C@@H](O)[C@@H](O)NC(=O)[C@@H]5[C@@H](O)[C@@H](C)CN5C(=O)[C@H]([C@H](O)CC(N)=O)NC(=O)[C@H]([C@H](O)[C@@H](O)c5ccc(O)c(OS(=O)(=O)O)c5)NC(=O)[C@@H]5C[C@@H](O)CN5C(=O)[C@H]([C@@H](C)O)NC4=O)cc3)no2)cc1 [Micafungin] (X1-[Orn(4R-OH,5R-OH)]T[Hyp][hTyr(3S-OH,4S-OH,3'-OSO3H)][Gln(3R-OH)][Pro(3S-OH,4S-Me)]; lactam 1-C) next?
Data returned: true

Data request: Lookup COc1ccc2c(c1)c(CC(=O)O)c(C)n2C(=O)c1ccc(Cl)cc1
Data returned: false

Data request: // query: CCCc1nc(C(C)(C)O)c(C(=O)O)n1Cc1ccc(-c2ccccc2-c2nnn[nH]2)cc1
Data returned: false

Data request: Do the same for CC1=C(CC(=O)O)c2cc(F)ccc2/C1=C\c1ccc([S+](C)[O-])cc1 (centres unmarked) please
Data returned: false

Data request: Param item: CCc1cccc2c3c([nH]c12)C(CC)(CC(=O)O)OCC3 (centres unmarked)
Data returned: false
